experimentNotes: chemical genetic growth profiling, strain panel (AID 1159580);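 note: tested at 20 µM; growth read once vehicle control cultures reached saturation at 30 °C; 1 = growth at the plate median or of vehicle wells; lower values mean less growth of the strain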
cond: S. cerevisiae deletion strains, growth OD, locus YOR106W, strain vam3, active compounds read low
About 2,000 (36%) of roughly 5,500 compounds were called active. Roughly 18% stayed inconclusive and do not appear here. The list shows a part of the results.
outcomeMeasure: normalized growth
Give only the figure.

INSERT INTO assay_data (compound, result) VALUES
  ('COc1cc2c(cc1OC)C(C)NCC2 (stereo unspecified)', 0.998),
  ('CCC1(C2=NCCN2)Cc2ccccc2O1 (stereo unspecified)', 1.01),
  ('O=C(O)C1=C(CSc2nnnn2CS(=O)(=O)O)CS[C@@H]2C(NC(=O)[C@H](O)c3ccccc3)C(=O)N12 (stereo partly specified)', 0.971),
  ('O=C1c2cccc(O)c2C(=O)c2c(O)cccc21', 0.577),
  ('CC(=O)Oc1c(C)c(C)c2c(c1C)CCC(C)(CCCC(C)CCCC(C)CCCC(C)C)O2 (stereo unspecified)', 0.977),
  ('O=C1C=CC(=O)c2c(O)cccc21', 0.91),
  ('C=C[C@H]1CN2CC[C@H]1C[C@H]2[C@H](O)c1ccnc2ccccc12', 0.994),
  ('C=C(C)C1Cc2c(ccc3c(=O)c4c(oc23)COc2cc(OC)c(OC)cc2-4)O1 (stereo unspecified)', 1.02);

The reported value for COC1=CC23CCCN2CCc2cc4c(cc2C3C1O)OCO4 (stereo unspecified) in terms of normalized growth is 1.03

The reported value for CC(C)C1CCC(C(=O)N[C@@H](Cc2ccccc2)C(=O)O)CC1 (stereo partly specified) in terms of normalized growth is 0.981

The reported value for "Cc1cc(O)c2c(c1)C(=O)c1cccc(O)c1C2=O" in terms of normalized growth is 0.965
